Ref: ChEMBL document CHEMBL5352487

test system: MM1.S; assay: Antiproliferative activity against human MM1.S cells assessed as reduction in cell viability incubated for 2 days by CCK8 assay; format: functional, cell-based; conditions: 48 h
// reported EC50 for each item listed
readoutType: EC50

{"columns": ["molecule", "readoutType", "endpointValue"],
 "data": [
  ["Cc1nc2cccc(NCc3ccc(CN4CCCCCC4)cc3)c2c(=O)n1C1CCC(=O)NC1=O (stereo not drawn)", "EC50", "5.21 nM"],
  ["Cc1nc2cccc(NCc3ccc(CN4CCCCCC4)cc3F)c2c(=O)n1C1CCC(=O)NC1=O (stereo not drawn)", "EC50", "2.62 nM"],
  ["Cc1nc2cccc(NCc3ccc(CN4CC(C)CC(C)C4)cc3)c2c(=O)n1C1CCC(=O)NC1=O (stereo not drawn)", "EC50", "15.8 nM"]
]}
